Recorded Test A rating (disease control) by entry
# Test system: Phakopsora pachyrhizi
# TEST_PROTOCOL: Test A: test suspension sprayed on soybean seedlings one day before inoculation with Phakopsora pachyrhizi spores (Asian soybean rust), visual disease rating
# Type: in vivo
# CONDITION_SET: 10 ppm test suspension, 100 = 100% disease control, 0 = no control
MEASUREMENT_TYPE: Test A rating (disease control) (%)

INSERT INTO assay_data (compound, measured_value) VALUES
  ('CCO/C(=C\Oc1ccc(Cn2cc(C(=O)OCC(=O)c3ccccc3)cn2)cc1)C(F)(F)F [compound 244]', 100),
  ('C=CC(F)(F)OC(=O)c1cnn(Cc2ccc(OCC(O)(O)C(F)(F)F)cc2)c1 [Compound 38]', 97),
  ('C=CCOC(=O)c1cnn(Cc2ccc(OCC3(C(F)(F)F)OCCO3)cc2)c1 [compound 188]', 100),
  ('FC(F)(F)C1(COc2ccc(OCC3(C(F)(F)F)OCCO3)cc2)OCCO1 [compound 28]', 0),
  ('CCO/C(=C\Oc1ccc(CN2OCC(C)(C)C2=O)cc1)C(F)(F)F [compound 92]', 0),
  ('CCOC(=O)c1ccnn1Cc1ccc(O/C=C(\OCC)C(F)(F)F)cc1 [compound 241]', 0),
  ('CCO/C(=C\Oc1ccc(Cn2cnc(C#N)n2)cc1)C(F)(F)F [Compound 82]', 97);

====

# Test system: Phakopsora pachyrhizi
# TEST_PROTOCOL: Test A: test suspension sprayed on soybean seedlings one day before inoculation with Phakopsora pachyrhizi spores (Asian soybean rust), visual disease rating
# Format: in vivo
# CONDITION_SET: 10 ppm test suspension, 100 = 100% disease control, 0 = no control
Entries whose Test A rating (disease control) is below 90% take True; entries at or above 90% take False.

INSERT INTO assay_data (molecule, category) VALUES
  ('CCO/C(=C\Oc1cccc(Cn2cc(C(=O)OCCOC)cn2)c1)C(F)(F)F', 'False'),
  ('CCO/C(=C\Oc1ccc(S(C)(=O)=O)cc1)C(F)(F)F', 'True'),
  ('CCO/C(=C\Oc1ccc(S(=O)(=O)N(C)C)cc1)C(F)(F)F', 'True'),
  ('O=C(NCC1CC1)c1cnc(Cc2ccc(OCC(O)(O)C(F)(F)F)cc2)o1', 'True'),
  ('CCO/C(=C\Oc1ccc(C(=O)OC(C)C)cc1)C(F)(F)F', 'True'),
  ('CCO/C(=C\Oc1ccc(C(=O)NC2CC2)cc1)C(F)(F)F', 'True'),
  ('CCOC(=O)c1cnn(Cc2ccc(OCC3(C(F)(F)F)OC(=O)CS3)cc2)c1 (centres unmarked)', 'False'),
  ('CCOC(=O)c1cnn(C(C)c2ccc(O/C=C(\OCC)C(F)(F)F)cc2)c1 (centres unmarked)', 'False'),
  ('CCO/C(=C\Oc1ccc(Cn2ccc(C(=O)OCCOC)n2)cc1)C(F)(F)F', 'False'),
  ('CCO/C(=C\Oc1ccc(C(=O)NC)cc1)C(F)(F)F', 'True'),
  ('CN(C)S(=O)(=O)c1ccc(OCC(O)(O)C(F)(F)F)cc1', 'True'),
  ('CCO/C(=C\Oc1ccc(Cn2cncn2)cc1)C(F)(F)F', 'True'),
  ('O=C(OCc1ccc(F)c(F)c1)c1cnn(Cc2ccc(OCC(O)(O)C(F)(F)F)cc2)c1', 'True'),
  ('CCO/C(=C\Oc1ccc(Cn2cc(C(=O)OC)cn2)cc1)C(F)(F)F', 'False'),
  ('CCO/C(=C\Oc1ccc(Cn2cc(C(=O)OCCC#N)cn2)cc1)C(F)(F)F', 'False'),
  ('CCOC(=COc1ccc(CN2CCC(C(=O)OC)C2)cc1)C(F)(F)F (mixture of isomers)', 'False'),
  ('CS(=O)(=O)c1ccc(OCC(O)(O)C(F)(F)F)cc1', 'True'),
  ('O=C(NCC(F)(F)F)c1csc(Cc2ccc(OCC(O)(O)C(F)(F)F)cc2)n1', 'False'),
  ('CCO/C(=C\Oc1ccc(Cn2cc(C(=O)NCC3CC3)cn2)cc1)C(F)(F)F', 'True'),
  ('FC(F)(F)C1(COc2ccc(Oc3ccccc3)cc2)OCCO1', 'True'),
  ('COC(C)C(=O)NCc1ccc(OCC2(C(F)(F)F)OCCO2)cc1 (centres unmarked)', 'True'),
  ('C=C(C)COC(=O)c1cnn(Cc2cccc(O/C=C(\OCC)C(F)(F)F)c2)c1', 'False'),
  ('CCO/C(=C\Oc1ccc(CNC(=O)CC)cc1)C(F)(F)F', 'True'),
  ('FC(F)(F)C1(COc2ccc(-c3ccccc3)cc2)OCCO1', 'True'),
  ('C#CCOC(=O)c1cnn(Cc2ccc(O/C=C(\OCC)C(F)(F)F)cc2)c1', 'False'),
  ('CCOC(=O)Cc1nnn(Cc2ccc(O/C=C(\OCC)C(F)(F)F)cc2)n1', 'True'),
  ('CC(C)CS(=O)(=O)NCc1ccc(OCC2(C(F)(F)F)OCCO2)cc1', 'True');
